Source of measurements: patent US20090099231A1

A set of compounds tested on human Factor Xa (Homo sapiens, UniProt P00742), with measured pKi:
pKi: −log10 of the molar value. Counter-ions that a name gives are not always drawn.
Property: pKi

{"Compound": "CC1NCCc2cc(N3CC[C@H](NS(=O)(=O)c4ccc5cc(Cl)ccc5c4)C3=O)ccc21 (stereo partly drawn) [Example 31, hydrochloride]", "Result Value": "> 8.00"}
{"Compound": "CN([C@H]1CCN(c2ccc3c(c2)CCNC3)C1=O)S(=O)(=O)/C=C/c1ccc(Cl)s1 [Example 34, hydrochloride]", "Result Value": "> 8.00"}
{"Compound": "CC1Cc2cc(N3CC[C@H](NS(=O)(=O)/C=C/c4ccc(Cl)s4)C3=O)ccc2CN1 (stereo partly drawn) [Example 33, hydrochloride]", "Result Value": "> 8.00"}
